- MEASURED TARGET: aldose reductase (Bos taurus)
- Construct: the preparation of the enzyme from bovine lens; from tissue; host or cells: bovine lens
- ASSAY PROCEDURE: in vitro aldose reductase inhibition (modified Hayman and Kinoshita procedure)
- Format: biochemical, bovine
- STUDY CONDITIONS: 10^-5 molar; read-out: % Inhibition at Different Molar Concentration (in vitro), 10^-5
Rule: inhibition at 10 µM of 90% or more gives Satisfied; anything lower gives Not satisfied.

Some solved entries appear below for comparison.
COc1ccc2c(C(=S)N(C)CC(=O)O)cccc2c1I [Example 47]; Satisfied
COc1c(Cl)cc(C(=S)N(C)CC(=O)O)c2ccccc12 [Example 45]; Not satisfied
CCCCCOc1ccc2c(C(=S)N(C)CC(=O)O)cccc2c1Br [Example 37]; Satisfied
CCCCN(CC(=O)O)C(=S)c1cccc2c(Br)cccc12 [Example 58]; Not satisfied
CCN(CC(=O)O)C(=S)c1cccc2c(Br)cccc12 [Example 57]; Not satisfied

Please turn your attention to the following entry.
Check if inhibition at 10 µM >= 90% (inclusive). Item: CN(CC(=O)O)C(=S)c1cccc2c(Br)cccc12 [Example 32] Satisfied
